target: GluN1/GluN2A (Rattus norvegicus, UniProt P35439+Q00959); type: cell-based
Sequence (Q00959 23-1464, other chains not shown): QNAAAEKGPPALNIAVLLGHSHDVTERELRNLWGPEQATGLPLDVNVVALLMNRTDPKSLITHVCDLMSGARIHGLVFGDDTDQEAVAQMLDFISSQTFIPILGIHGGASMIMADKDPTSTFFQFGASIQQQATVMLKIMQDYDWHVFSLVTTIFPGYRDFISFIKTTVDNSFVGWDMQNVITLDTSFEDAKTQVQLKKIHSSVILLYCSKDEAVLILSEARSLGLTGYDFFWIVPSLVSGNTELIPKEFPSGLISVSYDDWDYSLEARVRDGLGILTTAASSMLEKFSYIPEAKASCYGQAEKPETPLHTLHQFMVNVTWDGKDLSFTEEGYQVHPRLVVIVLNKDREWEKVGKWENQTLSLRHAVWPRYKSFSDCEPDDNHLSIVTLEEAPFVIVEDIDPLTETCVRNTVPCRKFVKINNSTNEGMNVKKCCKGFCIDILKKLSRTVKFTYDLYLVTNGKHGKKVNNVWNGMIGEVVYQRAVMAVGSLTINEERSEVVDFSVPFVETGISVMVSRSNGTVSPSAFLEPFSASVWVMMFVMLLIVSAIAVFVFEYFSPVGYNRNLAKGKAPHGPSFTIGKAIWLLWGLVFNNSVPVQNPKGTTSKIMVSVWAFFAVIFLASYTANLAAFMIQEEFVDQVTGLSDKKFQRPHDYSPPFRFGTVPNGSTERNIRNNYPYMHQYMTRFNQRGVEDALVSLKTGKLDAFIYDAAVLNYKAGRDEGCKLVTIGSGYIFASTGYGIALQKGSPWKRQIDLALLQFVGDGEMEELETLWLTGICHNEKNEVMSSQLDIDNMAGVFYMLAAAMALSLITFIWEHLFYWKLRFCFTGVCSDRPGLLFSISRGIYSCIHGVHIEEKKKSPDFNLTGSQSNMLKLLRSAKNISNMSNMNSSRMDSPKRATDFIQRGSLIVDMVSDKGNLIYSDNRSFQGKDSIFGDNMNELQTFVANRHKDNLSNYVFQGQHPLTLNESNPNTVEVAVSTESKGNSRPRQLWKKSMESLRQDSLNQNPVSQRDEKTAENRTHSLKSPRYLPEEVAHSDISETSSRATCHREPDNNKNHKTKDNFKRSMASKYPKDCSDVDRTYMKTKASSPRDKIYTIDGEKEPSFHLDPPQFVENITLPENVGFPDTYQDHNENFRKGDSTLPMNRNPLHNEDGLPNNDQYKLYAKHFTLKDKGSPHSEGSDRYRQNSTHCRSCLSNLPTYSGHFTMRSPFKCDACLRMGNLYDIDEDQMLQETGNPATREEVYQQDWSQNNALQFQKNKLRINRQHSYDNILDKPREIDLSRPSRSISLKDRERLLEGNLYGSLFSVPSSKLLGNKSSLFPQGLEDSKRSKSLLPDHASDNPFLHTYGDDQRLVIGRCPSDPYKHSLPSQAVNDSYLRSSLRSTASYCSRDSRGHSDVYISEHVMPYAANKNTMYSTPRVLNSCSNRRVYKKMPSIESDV
Recorded Endpoint: IC50 (µM)

> print(dat)
                                   compound  recorded.endpoint  display.unit  observed.value
1  O=C(CCCO)N1N=C(c2c(-c3ccc(Cl)cc3)c3ccccc3[nH]c2=O)CC1c1ccc(Cl)cc1 (stereo not shown)               IC50            µM              62

----------
test system: P-gp (MDR1); test: MDR1-MDCK permeability assay; format: in vitro ADME, canine; conditions: dog, MDCK-MDR1, pH 7.4, Papp, determination 1, B-to-A; 5 µM; 120 minutes
Recorded Endpoint: Papp B→A at 120 min, 5 µM (×10⁻⁶ cm/s)

> print(dat)
                                   compound          recorded.endpoint  display.unit  observed.value
1  O=C(CCCF)N1N=C(c2c(-c3ccc(Cl)cc3)c3ccccc3[nH]c2=O)CC1c1ccc(Cl)cc1 (stereo not drawn)  Papp B→A at 120 min, 5 µM    ×10⁻⁶ cm/s            9.32
2  O=C(O)CCC(=O)N1N=C(c2c(-c3ccc(Cl)cc3)c3ccccc3[nH]c2=O)CC1c1ccc(Cl)cc1 (stereo not drawn)  Papp B→A at 120 min, 5 µM    ×10⁻⁶ cm/s            33.4
3  O=C(CCCO)N1N=C(c2c(-c3ccc(Cl)cc3)c3ccccc3[nH]c2=O)CC1c1ccc(Cl)cc1 (stereo not drawn)  Papp B→A at 120 min, 5 µM    ×10⁻⁶ cm/s            66.2

----------
test system: P-gp (MDR1); test: MDR1-MDCK permeability assay; assay type: in vitro ADME, canine; conditions: dog, MDCK-MDR1, pH 7.4
Recorded Endpoint: efflux ratio at 120 min, 5 µM

> print(dat)
                                   compound  observed.value
1  O=C(CCCO)N1N=C(c2c(-c3ccc(Cl)cc3)c3ccccc3[nH]c2=O)CC1c1ccc(Cl)cc1 (stereo not shown)              26

----------
system: P-gp (MDR1); assay: MDR1-MDCK permeability assay; format: in vitro ADME, canine; conditions: dog, MDCK-MDR1, pH 7.4, Papp, determination 1, A-to-B; 5 µM; 120 minutes
List of Papp A→B at 120 min, 5 µM values.
Recorded Endpoint: Papp A→B at 120 min, 5 µM (×10⁻⁶ cm/s)

> print(dat)
                                   molecule  observed.value
1  O=C(CCCO)N1N=C(c2c(-c3ccc(Cl)cc3)c3ccccc3[nH]c2=O)CC1c1ccc(Cl)cc1 (centres unmarked)            2.45
2  O=C(CCCF)N1N=C(c2c(-c3ccc(Cl)cc3)c3ccccc3[nH]c2=O)CC1c1ccc(Cl)cc1 (centres unmarked)            4.51

----------
target: GluN1/GluN2C (Rattus norvegicus, UniProt P35439+Q00961)
Sequence (Q00961 20-1237, other chains not shown): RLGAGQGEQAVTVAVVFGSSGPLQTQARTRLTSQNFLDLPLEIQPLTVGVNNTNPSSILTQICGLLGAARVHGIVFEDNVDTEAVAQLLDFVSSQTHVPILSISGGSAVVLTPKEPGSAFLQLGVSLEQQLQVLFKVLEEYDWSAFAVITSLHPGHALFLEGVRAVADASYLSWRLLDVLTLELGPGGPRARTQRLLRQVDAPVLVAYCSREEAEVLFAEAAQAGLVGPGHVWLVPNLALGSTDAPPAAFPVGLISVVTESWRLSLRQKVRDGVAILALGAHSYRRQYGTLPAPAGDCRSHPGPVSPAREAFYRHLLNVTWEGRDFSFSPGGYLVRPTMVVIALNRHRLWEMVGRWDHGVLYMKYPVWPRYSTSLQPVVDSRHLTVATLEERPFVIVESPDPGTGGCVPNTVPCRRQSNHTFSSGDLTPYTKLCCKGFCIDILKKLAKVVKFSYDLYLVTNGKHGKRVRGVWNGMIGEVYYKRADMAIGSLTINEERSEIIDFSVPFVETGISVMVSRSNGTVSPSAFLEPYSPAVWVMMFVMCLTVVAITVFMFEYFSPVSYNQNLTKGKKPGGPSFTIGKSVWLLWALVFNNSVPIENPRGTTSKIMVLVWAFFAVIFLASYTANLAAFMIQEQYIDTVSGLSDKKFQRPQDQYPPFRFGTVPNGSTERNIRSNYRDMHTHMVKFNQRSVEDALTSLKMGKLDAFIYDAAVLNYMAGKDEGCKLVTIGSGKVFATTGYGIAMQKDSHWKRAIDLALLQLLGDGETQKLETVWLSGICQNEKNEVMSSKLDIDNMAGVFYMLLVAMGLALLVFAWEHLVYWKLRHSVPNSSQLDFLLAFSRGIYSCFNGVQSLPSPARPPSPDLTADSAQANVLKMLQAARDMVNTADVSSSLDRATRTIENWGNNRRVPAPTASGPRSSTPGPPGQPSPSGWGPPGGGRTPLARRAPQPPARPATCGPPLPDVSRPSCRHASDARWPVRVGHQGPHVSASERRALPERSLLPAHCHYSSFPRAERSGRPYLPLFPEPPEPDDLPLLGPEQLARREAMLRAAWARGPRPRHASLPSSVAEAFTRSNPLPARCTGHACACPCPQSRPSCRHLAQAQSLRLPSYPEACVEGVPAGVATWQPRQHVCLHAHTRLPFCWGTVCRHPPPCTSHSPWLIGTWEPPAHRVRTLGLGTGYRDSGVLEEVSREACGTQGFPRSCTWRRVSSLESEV
Recorded Endpoint: IC50 (nM)

> print(dat)
                                   compound  display.unit  observed.value
1  O=C(CCCO)N1N=C(c2c(-c3ccc(Cl)cc3)c3ccccc3[nH]c2=O)CC1c1ccc(Cl)cc1 (stereo not shown) [Compound 64]            nM            1700

----------
target: GluN1/GluN2B (Rattus norvegicus, UniProt P35439+Q00960)
Sequence (Q00960 27-1482, other chains not shown): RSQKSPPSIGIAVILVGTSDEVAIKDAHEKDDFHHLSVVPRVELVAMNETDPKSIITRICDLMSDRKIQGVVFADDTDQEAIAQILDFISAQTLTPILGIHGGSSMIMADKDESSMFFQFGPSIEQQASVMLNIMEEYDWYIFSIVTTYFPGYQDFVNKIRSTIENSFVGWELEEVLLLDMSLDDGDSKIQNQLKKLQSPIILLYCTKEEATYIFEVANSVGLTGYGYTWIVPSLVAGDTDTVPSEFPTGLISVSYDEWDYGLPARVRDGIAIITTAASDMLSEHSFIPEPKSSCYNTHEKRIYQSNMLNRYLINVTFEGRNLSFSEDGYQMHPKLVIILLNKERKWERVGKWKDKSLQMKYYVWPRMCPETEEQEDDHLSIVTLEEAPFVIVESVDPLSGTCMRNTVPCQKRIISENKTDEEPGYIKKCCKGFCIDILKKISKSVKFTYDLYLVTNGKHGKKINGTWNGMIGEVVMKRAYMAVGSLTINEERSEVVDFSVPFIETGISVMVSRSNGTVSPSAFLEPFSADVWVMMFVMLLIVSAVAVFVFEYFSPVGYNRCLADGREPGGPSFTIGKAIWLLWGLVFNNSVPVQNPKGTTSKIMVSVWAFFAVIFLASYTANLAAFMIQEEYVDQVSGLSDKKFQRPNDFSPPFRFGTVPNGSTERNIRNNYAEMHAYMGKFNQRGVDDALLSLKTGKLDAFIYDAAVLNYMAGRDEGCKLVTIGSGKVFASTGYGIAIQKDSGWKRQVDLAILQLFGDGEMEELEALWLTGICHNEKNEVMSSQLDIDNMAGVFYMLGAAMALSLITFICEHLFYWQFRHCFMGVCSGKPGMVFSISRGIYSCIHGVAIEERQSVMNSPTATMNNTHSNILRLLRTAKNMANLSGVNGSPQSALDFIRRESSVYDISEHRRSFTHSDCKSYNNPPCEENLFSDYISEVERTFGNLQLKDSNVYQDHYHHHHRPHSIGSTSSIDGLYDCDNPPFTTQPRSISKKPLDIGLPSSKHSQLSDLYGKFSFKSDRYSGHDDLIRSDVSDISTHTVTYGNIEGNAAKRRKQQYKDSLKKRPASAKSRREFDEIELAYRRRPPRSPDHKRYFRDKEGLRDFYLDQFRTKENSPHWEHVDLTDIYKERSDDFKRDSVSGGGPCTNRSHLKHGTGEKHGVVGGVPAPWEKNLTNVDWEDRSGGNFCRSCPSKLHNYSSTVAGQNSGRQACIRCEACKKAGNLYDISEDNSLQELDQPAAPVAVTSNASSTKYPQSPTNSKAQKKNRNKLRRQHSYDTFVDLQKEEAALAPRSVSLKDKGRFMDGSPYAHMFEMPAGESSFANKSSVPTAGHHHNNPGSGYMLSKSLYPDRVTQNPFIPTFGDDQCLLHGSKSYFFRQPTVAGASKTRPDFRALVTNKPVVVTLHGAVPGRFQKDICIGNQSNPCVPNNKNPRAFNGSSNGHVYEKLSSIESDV
pIC50: −log10 of the molar value.
Recorded Endpoint: pIC50

> print(dat)
                                   compound  observed.value
1  O=C(CCCO)N1N=C(c2c(-c3ccc(Cl)cc3)c3ccccc3[nH]c2=O)CC1c1ccc(Cl)cc1 (stereo not shown)            4.48

----------
assay: human liver microsomal stability; type: in vitro ADME; conditions: human, liver microsomes, pH 7.4
Recorded Endpoint: remaining at 1 h, 1 µM (%)

> print(dat)
                                   compound       recorded.endpoint  observed.value
1  O=C(CCCO)N1N=C(c2c(-c3ccc(Cl)cc3)c3ccccc3[nH]c2=O)CC1c1ccc(Cl)cc1 (stereo not shown)  remaining at 1 h, 1 µM             6.5

----------
assay: human liver microsomal stability; assay type: in vitro ADME; settings: human, liver microsomes, pH 7.4
Recorded Endpoint: remaining at 0 h, 1 µM (%)

> print(dat)
                                   compound       recorded.endpoint  observed.value
1  O=C(CCCO)N1N=C(c2c(-c3ccc(Cl)cc3)c3ccccc3[nH]c2=O)CC1c1ccc(Cl)cc1 (centres unmarked)  remaining at 0 h, 1 µM             100
2  O=C(CCCF)N1N=C(c2c(-c3ccc(Cl)cc3)c3ccccc3[nH]c2=O)CC1c1ccc(Cl)cc1 (centres unmarked)  remaining at 0 h, 1 µM             100

----------
List of Papp A→B at 120 min, 5 µM values.
test system: P-gp (MDR1); experiment: MDR1-MDCK permeability assay; format: in vitro ADME, canine; conditions: dog, MDCK-MDR1, pH 7.4, Papp, determination 2, A-to-B; 5 µM; 120 minutes
Recorded Endpoint: Papp A→B at 120 min, 5 µM (×10⁻⁶ cm/s)

> print(dat)
                                   molecule  assayed.target          recorded.endpoint  observed.value
1  O=C(CCCO)N1N=C(c2c(-c3ccc(Cl)cc3)c3ccccc3[nH]c2=O)CC1c1ccc(Cl)cc1 (centres unmarked)     P-gp (MDR1)  Papp A→B at 120 min, 5 µM            2.48
2  O=C(CCCF)N1N=C(c2c(-c3ccc(Cl)cc3)c3ccccc3[nH]c2=O)CC1c1ccc(Cl)cc1 (centres unmarked)     P-gp (MDR1)  Papp A→B at 120 min, 5 µM            3.24

----------
assay: human liver microsomal stability; assay type: in vitro ADME; settings: human, liver microsomes, pH 7.4
List of microsomal CLint at 1 µM values.
Recorded Endpoint: microsomal CLint at 1 µM (µL/min/mg)

> print(dat)
                                   compound  value.prefix  observed.value
1  O=C(CCCF)N1N=C(c2c(-c3ccc(Cl)cc3)c3ccccc3[nH]c2=O)CC1c1ccc(Cl)cc1 (stereo not drawn)             =              40
2  O=C(O)CCC(=O)N1N=C(c2c(-c3ccc(Cl)cc3)c3ccccc3[nH]c2=O)CC1c1ccc(Cl)cc1 (stereo not drawn)             <              20
3  O=C(CCCO)N1N=C(c2c(-c3ccc(Cl)cc3)c3ccccc3[nH]c2=O)CC1c1ccc(Cl)cc1 (stereo not drawn)             =             110
